- TARGET_DESC: Acetylcholinesterase (Homo sapiens)
- Sequence (P22303 whole entry): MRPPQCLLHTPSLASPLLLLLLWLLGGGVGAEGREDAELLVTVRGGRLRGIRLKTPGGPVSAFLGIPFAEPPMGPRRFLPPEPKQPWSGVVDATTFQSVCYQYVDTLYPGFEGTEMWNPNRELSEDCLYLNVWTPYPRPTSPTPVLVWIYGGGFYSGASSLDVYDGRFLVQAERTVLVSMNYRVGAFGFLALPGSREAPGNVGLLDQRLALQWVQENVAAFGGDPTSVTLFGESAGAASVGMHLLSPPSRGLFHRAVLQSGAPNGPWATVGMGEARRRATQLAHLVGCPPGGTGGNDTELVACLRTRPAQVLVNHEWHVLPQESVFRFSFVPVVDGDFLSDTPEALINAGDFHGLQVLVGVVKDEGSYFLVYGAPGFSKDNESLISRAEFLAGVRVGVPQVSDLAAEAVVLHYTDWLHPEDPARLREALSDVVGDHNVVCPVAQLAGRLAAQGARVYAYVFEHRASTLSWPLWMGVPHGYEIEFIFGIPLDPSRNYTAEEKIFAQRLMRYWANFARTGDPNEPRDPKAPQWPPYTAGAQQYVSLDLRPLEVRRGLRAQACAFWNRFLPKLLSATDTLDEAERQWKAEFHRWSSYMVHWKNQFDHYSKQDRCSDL
pIC50: −log10 of the molar value.
Rule: yes for pIC50 not less than 7, no for anything less.

- SMILES_CODE: "CCN(CCC(=O)NCCCNc1c2c(nc3ccccc13)CCCC2)C1CCCCC1"
  ASSIGNED_CATEGORY: "yes"

Ask: Reported pIC50 reaches at least 7 for O=C(Cc1cc(=O)oc2cc(O)ccc12)NNC(=S)Nc1c2c(nc3ccccc13)CCCC2 ?
Result: no

Ask: Has O=C(Cc1cc(=O)oc2cc(O)ccc12)NCCNc1c2c(nc3ccccc13)CCCC2 a recorded pIC50 greater than or equal to 7?
Result: no

Ask: Is it the case that O=C(Cc1cc(=O)oc2cc(O)ccc12)NCCCCNc1c2c(nc3ccccc13)CCCC2 has pIC50 reaching or exceeding 7?
Result: yes

Ask: Check if pIC50 >= 7 (inclusive). Item: O=C(Cc1cc(=O)oc2cc(O)ccc12)NCCCNc1c2c(nc3ccccc13)CCCC2
Result: no

Ask: # bool: pIC50 of CCN(CCC(=O)NCCNc1c2c(nc3ccccc13)CCCC2)C1CCCCC1 >= 7
Result: no

Ask: Determine whether this compound has pIC50 no lower than 7: CN(CCC(=O)NCCCNc1c2c(nc3ccccc13)CCCC2)C1CCCCC1
Result: no

Ask: Reported pIC50 reaches at least 7 for CN(CCC(=O)NCCNc1c2c(nc3ccccc13)CCCC2)C1CCCCC1 ?
Result: no

Ask: Is it the case that O=C(Cc1cc(=O)oc2cc(O)ccc12)N/N=C1\SCC(=O)N1c1c2c(nc3ccccc13)CCCC2 has pIC50 reaching or exceeding 7?
Result: no
